- method: collision cross section in nitrogen (drift tube, single-field); higher = larger gas-phase ion size;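 also: chemical standards at 10 µM analysed by drift tube IMS-QTOF MS in about 3.95 torr nitrogen, mean of duplicate injections differing ≤1%, mass error below 10 ppm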
- cond: ion type: [M+Na]; ion source: ESI; ion mode: Positive
measurement type: collision cross section in nitrogen (Å²)
Please state the figure in Å²; there is no need to write the unit.

Example cases with answers are listed next.
CN(C)C(=O)Nc1cccc(OC(=O)NC(C)(C)C)c1 :: 175
CCCc1c(OCCCOc2ccc(OCC(=O)O)cc2)ccc(C(C)=O)c1O :: 191.7
O=C(Nc1ccc2[nH]ccc2c1)c1cc2cc(F)ccc2n1Cc1cccc(F)c1 :: 202.1
CSc1ccc(Oc2ccc(S(N)(=O)=O)cc2CN(C)C)cc1C :: 208.1
Cc1cc(CCC(=O)OCCOCCOCCOC(=O)CCc2cc(C)c(O)c(C(C)(C)C)c2)cc(C(C)(C)C)c1O :: 236.4

Return reported collision cross section in nitrogen; argument: O=C(CCCN1CCC(O)(c2ccc(Cl)cc2)CC1)c1ccc(F)cc1 [Haloperidol]
200.2

May I ask what collision cross section in nitrogen has been recorded for CCOP(=S)(OCC)SCn1nnc2ccccc2c1=O [Azinphos-ethyl] ?
177.9

What measured collision cross section in nitrogen goes with Cc1ccn2nc(S(=O)(=O)Nc3c(F)cccc3F)nc2n1 [Flumetsulam] ?
176.7

---

- method: collision cross section in nitrogen (drift tube, single-field); higher = larger gas-phase ion size
- cond: ion type: [M-H]; ion source: ESI; ion mode: Negative
measurement type: collision cross section in nitrogen (Å²)
API: value field is a number in Å²; no unit string.

Observe how each entry below is paired with its result.
Nc1nc(N)c2nc(CNc3ccc(C(=O)N[C@@H](CCC(=O)O)C(=O)O)cc3)cnc2n1 :: 199.5
O=C1OC2(c3ccc(O)cc3Oc3cc(O)ccc32)c2ccccc21 [Fluorescein sodium] :: 176.1
O=S(=O)(O)c1cc(S(=O)(=O)O)c2c(N=Nc3ccccc3)c(O)ccc2c1 :: 192.5
C[C@@H](Oc1ccc(CNC(=O)c2cccnc2Oc2ccc3c(c2)OCO3)c(F)c1)C(=O)O :: 202.7
Cc1cc(C)c(C=C2C(=O)Nc3ccccc32)[nH]1 :: 158.4
Cc1ccc([N+](=O)[O-])cc1N=Nc1c(O)c(C(=O)Nc2ccccc2)cc2ccccc12 :: 207

Find the recorded collision cross section in nitrogen belonging to "Cc1ccc2[nH]c3cc4c(=O)c5cc(C)ccc5[nH]c4cc3c(=O)c2c1" and report it.
185.7

Tell me the measured collision cross section in nitrogen of CC1(C)NC(=O)N(c2ccc([N+](=O)[O-])c(C(F)(F)F)c2)C1=O [Nilutamide] , please.
162.8

Item "O=S(=O)(O)c1ccccc1" has what recorded collision cross section in nitrogen?
127.2

---

- method: collision cross section in nitrogen (drift tube, single-field); higher = larger gas-phase ion size
- cond: ion type: [M+H]; ion source: ESI; ion mode: Positive
measurement type: collision cross section in nitrogen (Å²)
Numeric answer only, unit Å² assumed.

COc1cccc([C@@]2(O)CCCC[C@@H]2CN(C)C)c1 [Tramadol] :: 161.1
CN(c1nccc(=O)[nH]1)C1CCN(c2nc3ccccc3n2Cc2ccc(F)cc2)CC1 [Mizolastine] :: 203.7
Oc1ccncc1 [4-Pyridinol] :: 116.2
CCNc1nc(NC(C)(C)C)nc(SC)n1 [Terbutryn] :: 159.4

Next compound, collision cross section in nitrogen to be filled in.
# collision cross section in nitrogen lookup, item CN1C(C)(C)CC(O)CC1(C)C [1,2,2,6,6-Pentamethylpiperidin-4-ol]
136.9
